Cited source for all entries: patent US11369565B2

# Tested on: rabbit skeletal myofibrils (approximately 90% fast fibers)
# test-description: Activation of fast skeletal myofibrils (PUMA coupled-enzyme ATPase assay at pCa25)
# Format: biochemical
# stated-conditions: concentration at which the compound increased the enzymatic activity by 40%; calcium at pCa25; PM12 buffer pH 6.8
readout-label: Mean AC1.4

* N#CCc1cnc(-c2cnc(NCC3(c4ncccc4F)CCC3)nc2)s1 | B (B=1-10 uM)
* NC(=O)c1cnc(NC2(c3ncccc3F)CCC2)nc1 | D (D=>20 uM)
* CC(C)[C@H](Nc1ncc(-c2ncc(C(N)=O)s2)cn1)c1ncccc1Cl | D (D=>20 uM)
* CC(C)(Nc1ncc(-c2cc(C(N)=O)ccc2F)cn1)c1ncccc1Cl | A (A=<1 uM)
* CNC(=O)c1ccnc(-c2cnc(NC[C@]3(c4ncccc4F)C[C@H](F)C3)nc2)c1 | B (B=1-10 uM)

The recorded Mean AC1.4 for entry `O=C(O)c1ccc(=O)n(-c2cnc(NC[C@]3(c4ncccc4F)C[C@H](F)C3)nc2)c1` equals D (D=>20 uM)
